Give pKi for every item shown.
Assay System: PD brain-derived a-syn aggregates (Homo sapiens, UniProt P37840)
Construct: from tissue; host or cells: human PD donor brain, sarkosyl-insoluble 100,000 x g pellet
Protocol Text: Micro-radiobinding competition assay against Example-1 [^3H-1] (Table 8)
Assay type: binding
Experimental Parameters: mean of Ki values in independent experiments using PD brain-derived homogenates from two different donors
One number for each entry, as −log10 of the molar value.

A selection of reference data follows.
Cc1ccc(N2Cc3nn(-c4ccc(N5CC[C@@H](F)C5)nc4)cc3C2=O)cn1 = 7.21
O=C1c2cn(-c3ccc(N4CC[C@H](F)C4)cc3)nc2CN1c1cccnc1 = 7.82

Now consider the entry below.
q: Fill blank: measured pKi of the compound O=C1c2cn(-c3ccc(N4CCOCC4)nc3)nc2CN1c1nccnc1F is ____.
a: 7.28

----------
Assay System: PD brain-derived a-syn aggregates (Homo sapiens)
Construct: from tissue; host or cells: human PD donor brain, sarkosyl-insoluble 100,000 x g pellet
Protocol Text: Micro-radiobinding competition assay against Example-1 [^3H-1] (Table 8)
Type: binding
Experimental Parameters: 1 μM non-radiolabelled example compound vs Example-1 [^3H-1] ligand; human PD brain-derived a-syn aggregates
Threshold 80%. Competition at 1 μM (%) below it: Y. Competition at 1 μM (%) at it or above: N.

# count of solved cases: 9
N#Cc1ccc(-n2cc3c(n2)CN(c2cccc(F)n2)C3=O)cn1 [Example 156] = N
CC(C)c1ccc(-n2cc3c(n2)CN(c2cncc(F)n2)C3=O)cn1 [Example 153] = Y
COc1cccc(N2Cc3nn(-c4ccc(N5CC[C@@H](F)C5)nc4)cc3C2=O)n1 [Example 74] = Y
O=C1c2cn(-c3ccc(N4CC[C@H](F)C4)nc3)nc2CN1c1ncccn1 [Example 18] = N
Cn1cc(N2Cc3nn(-c4ccc(N5CCC[C@@H](F)C5)nc4)cc3C2=O)cn1 [Example 120] = N
O=C1c2cn(-c3ccc(N4CC[C@H](F)C4)nc3)nc2CN1c1ncccc1O [Example 169] = N
O=C1c2cn(-c3ccc(N4CC[C@H](F)C4)nc3)nc2CN1c1cccc(O)n1 [Example 163] = N
O=C1c2cn(-c3ccc(N4CCOCC4)nc3)nc2CN1c1nccnc1F [Example 45] = N
CN(C)c1ccc(-n2cc3c(n2)CN(c2cccnc2)C3=O)cn1 [Example 135] = N

q: A record lists O=C1c2cn(-c3ccc(F)cn3)nc2CN1c1cccnc1 [Example 138] . Is its Competition at 1 μM (%) below 80%?
a: Y

----------
Assay System: PD brain-derived a-syn aggregates (Homo sapiens, UniProt P37840)
Construct: from tissue; host or cells: human PD donor brain, sarkosyl-insoluble 100,000 x g pellet
Protocol Text: Micro-radiobinding competition assay against Example-1 [^3H-1] (Table 8)
Assay type: binding
Experimental Parameters: competition over Example-1 [^3H-1]
Reported Property: pKi
Answers are plain numbers, as −log10 of the molar value.

Nc1ccc(N2Cc3nn(-c4ccc(N5CCCC5)nc4)cc3C2=O)cc1F = 8.10
Cl.O=C1c2cn(-c3ccc(N4CCCC4)nc3)nc2CN1c1cnc(F)cn1 = 8.10
O=C1c2cn(-c3ccc(N4CC[C@@H](F)C4)nc3)nc2CN1c1ncccc1O = 7.25

Now let's try a different one.
q: Which pKi value is on record for O=C1c2cn(-c3ccc(N4CC[C@H](F)C4)nc3)nc2CN1c1ccc(F)cc1 ?
a: 8.70
